# systemName: Rvs167, P39743
# Sequence (P39743 419-482): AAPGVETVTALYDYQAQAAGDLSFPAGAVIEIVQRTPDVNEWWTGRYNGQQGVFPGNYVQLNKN
# assayRemarks: SPOT array
# conditions: median of control spots 2707
endpoint: SPOT intensity
The answer should be written as a number, with no unit following it.

Exercise: Endpoint output: SPOT intensity of `FHLNPKRSAVLYDRP` . Value?
Key: 7

Exercise: Endpoint output: SPOT intensity of `LLRRTIPKRPFYHVL` . Value?
Key: 31

The reported numbers originate from paper PMC2756588.
